Data origin, for the record: paper PMC5700166

- subjectOfTest: GST-Hu-p50 (Homo sapiens, UniProt P19838 7-356)
- Sequence (P19838 7-356): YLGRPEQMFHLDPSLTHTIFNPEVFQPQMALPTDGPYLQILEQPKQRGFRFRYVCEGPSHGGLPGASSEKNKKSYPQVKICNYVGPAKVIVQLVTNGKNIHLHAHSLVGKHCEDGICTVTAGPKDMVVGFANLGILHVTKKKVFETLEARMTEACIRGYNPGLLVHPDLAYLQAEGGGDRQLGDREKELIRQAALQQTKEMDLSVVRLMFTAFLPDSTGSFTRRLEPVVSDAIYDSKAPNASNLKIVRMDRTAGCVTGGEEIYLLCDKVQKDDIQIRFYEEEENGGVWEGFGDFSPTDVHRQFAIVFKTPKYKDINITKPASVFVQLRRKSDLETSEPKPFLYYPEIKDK
- assayMethodText: protein-binding microarray (PBM); PBM: ~300 nM protein, 6 mM HEPES pH 7.8, 80 mM KCl, 0.5 mM EDTA, 0.5 mM EGTA, 6% glycerol, 35 ng/ul poly-dIdC, 1% milk, 1 h, room temperature; high values mean tight binding
- conditionInfo: dsDNA, one strand shown
Could you label it MET if measured binding signal is 2 z-score or higher, and NOT MET otherwise?

Prompt: Say whether "CCGATTAACATCAGGGGTTTCTATGATGTTAATCGGGTCTTGATTCGCTTGACGCTGCTG" shows binding signal of 2 z-score or more.
Response: MET

Prompt: Say whether "CCGATTAACATCAGAGACTTCCCTGATGTTAATCGGGTCTTGATTCGCTTGACGCTGCTG" shows binding signal of 2 z-score or more.
Response: NOT MET

Prompt: Say whether "CCGATTAACATCAAAATTCCGGGTGATGTTAATCGGGTCTTGATTCGCTTGACGCTGCTG" shows binding signal of 2 z-score or more.
Response: NOT MET

Prompt: Say whether "CCGATTAACATCAGGACTCCCCATGATGTTAATCGGGTCTTGATTCGCTTGACGCTGCTG" shows binding signal of 2 z-score or more.
Response: MET

Prompt: Say whether "CCGATTAACATCAGGTGATCACCTGATGTTAATCGGGTCTTGATTCGCTTGACGCTGCTG" shows binding signal of 2 z-score or more.
Response: NOT MET

###

- subjectOfTest: GST-Nv-NF-kB (Ser allele) (Nematostella vectensis, UniProt A7UNT2 2-411)
- Sequence: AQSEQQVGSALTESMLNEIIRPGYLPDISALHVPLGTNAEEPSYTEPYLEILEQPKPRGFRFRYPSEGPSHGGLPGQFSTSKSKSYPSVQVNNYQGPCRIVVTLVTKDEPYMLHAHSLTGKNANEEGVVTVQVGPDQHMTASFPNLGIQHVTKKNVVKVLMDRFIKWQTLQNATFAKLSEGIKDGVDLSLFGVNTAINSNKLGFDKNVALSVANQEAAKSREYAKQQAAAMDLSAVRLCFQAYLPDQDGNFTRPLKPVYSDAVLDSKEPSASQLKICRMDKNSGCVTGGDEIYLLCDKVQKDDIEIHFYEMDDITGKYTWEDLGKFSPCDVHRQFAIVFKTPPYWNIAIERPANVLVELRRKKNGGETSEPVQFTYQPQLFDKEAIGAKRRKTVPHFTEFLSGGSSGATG
- assayMethodText: protein-binding microarray (PBM); PBM: ~300 nM protein, 6 mM HEPES pH 7.8, 80 mM KCl, 0.5 mM EDTA, 0.5 mM EGTA, 6% glycerol, 35 ng/ul poly-dIdC, 1% milk, 1 h, room temperature; Ap Aiptasia and Nv Nematostella (sea anemones) / Co Capsaspora / Aq Amphimedon (sponge) / Dm Drosophila / Hu human; RHD is the Rel homology domain; high values mean tight binding
- conditionInfo: dsDNA, one strand shown
assayEndpoint: binding signal (z-score)
Give your result in z-score as a bare value.

Prompt: For the sequence "CCGATTAACATCAAATTCCCCCATGATGTTAATCGGGTCTTGATTCGCTTGACGCTGCTG" , give its measured binding signal value.
Response: 9.99

Prompt: For the sequence "CCGATTAACATCATCCCGGGAAATGATGTTAATCGGGTCTTGATTCGCTTGACGCTGCTG" , give its measured binding signal value.
Response: 2.26

Prompt: For the sequence "CCGATTAACATCAGGGAAAGTACTGATGTTAATCGGGTCTTGATTCGCTTGACGCTGCTG" , give its measured binding signal value.
Response: 6.18

Prompt: For the sequence "CCGATTAACATCAGGAATGCCCCTGATGTTAATCGGGTCTTGATTCGCTTGACGCTGCTG" , give its measured binding signal value.
Response: 3.31

Prompt: For the sequence "CCGATTAACATCAAATTTCCCCGTGATGTTAATCGGGTCTTGATTCGCTTGACGCTGCTG" , give its measured binding signal value.
Response: 11.4

Prompt: For the sequence "CCGATTAACATCAGAAACTCCCCTGATGTTAATCGGGTCTTGATTCGCTTGACGCTGCTG" , give its measured binding signal value.
Response: 7.84

Prompt: For the sequence "CCGATTAACATCAAAAGTTTCCCTGATGTTAATCGGGTCTTGATTCGCTTGACGCTGCTG" , give its measured binding signal value.
Response: 6.7

Prompt: For the sequence "CCGATTAACATCAAAATTTCCGGTGATGTTAATCGGGTCTTGATTCGCTTGACGCTGCTG" , give its measured binding signal value.
Response: 1.02

Prompt: For the sequence "CCGATTAACATCAAATTTCCCCCTGATGTTAATCGGGTCTTGATTCGCTTGACGCTGCTG" , give its measured binding signal value.
Response: 12.8

Prompt: For the sequence "CCGATTAACATCAGGGGGTAAGATGATGTTAATCGGGTCTTGATTCGCTTGACGCTGCTG" , give its measured binding signal value.
Response: 3.97

Prompt: For the sequence "CCGATTAACATCAAATTTCCCACTGATGTTAATCGGGTCTTGATTCGCTTGACGCTGCTG" , give its measured binding signal value.
Response: 4.5

Prompt: For the sequence "CCGATTAACATCACAAAACCCCCTGATGTTAATCGGGTCTTGATTCGCTTGACGCTGCTG" , give its measured binding signal value.
Response: 10.5

Prompt: For the sequence "CCGATTAACATCAGATAATCCCCTGATGTTAATCGGGTCTTGATTCGCTTGACGCTGCTG" , give its measured binding signal value.
Response: 9.43

Prompt: For the sequence "CCGATTAACATCAGGGGATTCCATGATGTTAATCGGGTCTTGATTCGCTTGACGCTGCTG" , give its measured binding signal value.
Response: 9.49

Prompt: For the sequence "CCGATTAACATCAGATGGGAAAATGATGTTAATCGGGTCTTGATTCGCTTGACGCTGCTG" , give its measured binding signal value.
Response: 5.39

Prompt: For the sequence "CCGATTAACATCAATAAATTCCCTGATGTTAATCGGGTCTTGATTCGCTTGACGCTGCTG" , give its measured binding signal value.
Response: 7.28

Prompt: For the sequence "CCGATTAACATCACGGAATCCCCTGATGTTAATCGGGTCTTGATTCGCTTGACGCTGCTG" , give its measured binding signal value.
Response: 9.68

Prompt: For the sequence "CCGATTAACATCAGGGGGGGCTATGATGTTAATCGGGTCTTGATTCGCTTGACGCTGCTG" , give its measured binding signal value.
Response: 3.58

Prompt: For the sequence "CCGATTAACATCAATATTTTCCCTGATGTTAATCGGGTCTTGATTCGCTTGACGCTGCTG" , give its measured binding signal value.
Response: 8.82

Prompt: For the sequence "CCGATTAACATCAGGGGACCACCTGATGTTAATCGGGTCTTGATTCGCTTGACGCTGCTG" , give its measured binding signal value.
Response: 2.99

Prompt: For the sequence "CCGATTAACATCAGGGGAACCACTGATGTTAATCGGGTCTTGATTCGCTTGACGCTGCTG" , give its measured binding signal value.
Response: 7.26

Prompt: For the sequence "CCGATTAACATCAAAACTTTCCCTGATGTTAATCGGGTCTTGATTCGCTTGACGCTGCTG" , give its measured binding signal value.
Response: 8.65

Prompt: For the sequence "CCGATTAACATCAGGGACTTTACTGATGTTAATCGGGTCTTGATTCGCTTGACGCTGCTG" , give its measured binding signal value.
Response: 6.59

Prompt: For the sequence "CCGATTAACATCAAGAATTTCCCTGATGTTAATCGGGTCTTGATTCGCTTGACGCTGCTG" , give its measured binding signal value.
Response: 7.49

Prompt: For the sequence "CCGATTAACATCAAGGTGTTTCCTGATGTTAATCGGGTCTTGATTCGCTTGACGCTGCTG" , give its measured binding signal value.
Response: 1.39

Prompt: For the sequence "CCGATTAACATCAAAACTCCCCTTGATGTTAATCGGGTCTTGATTCGCTTGACGCTGCTG" , give its measured binding signal value.
Response: 8.37

Prompt: For the sequence "CCGATTAACATCACTGTTTCCCCTGATGTTAATCGGGTCTTGATTCGCTTGACGCTGCTG" , give its measured binding signal value.
Response: 9.29

Prompt: For the sequence "CCGATTAACATCAAATAATCCCCTGATGTTAATCGGGTCTTGATTCGCTTGACGCTGCTG" , give its measured binding signal value.
Response: 10.6

Prompt: For the sequence "CCGATTAACATCACGGGATTCCCTGATGTTAATCGGGTCTTGATTCGCTTGACGCTGCTG" , give its measured binding signal value.
Response: 5.14

Prompt: For the sequence "CCGATTAACATCAAAAACCCCCTTGATGTTAATCGGGTCTTGATTCGCTTGACGCTGCTG" , give its measured binding signal value.
Response: 10.9

Prompt: For the sequence "CCGATTAACATCAACACCCCCCTTGATGTTAATCGGGTCTTGATTCGCTTGACGCTGCTG" , give its measured binding signal value.
Response: 3.96

Prompt: For the sequence "CCGATTAACATCAGGATAGTCCCTGATGTTAATCGGGTCTTGATTCGCTTGACGCTGCTG" , give its measured binding signal value.
Response: 4.11

Prompt: For the sequence "CCGATTAACATCAGGGGAACAACTGATGTTAATCGGGTCTTGATTCGCTTGACGCTGCTG" , give its measured binding signal value.
Response: 5.57

Prompt: For the sequence "CCGATTAACATCACGGGGAAAACTGATGTTAATCGGGTCTTGATTCGCTTGACGCTGCTG" , give its measured binding signal value.
Response: 9.43

Prompt: For the sequence "CCGATTAACATCACGGAAACACCTGATGTTAATCGGGTCTTGATTCGCTTGACGCTGCTG" , give its measured binding signal value.
Response: 1.16

Prompt: For the sequence "CCGATTAACATCAGGGGGTTGGATGATGTTAATCGGGTCTTGATTCGCTTGACGCTGCTG" , give its measured binding signal value.
Response: 4.6
